Here, each record is paired with measured Tmax data.
assay: clinical; conditions: human, in vivo, Tmax

| compound | quantity | result |
| --- | --- | --- |
| CC[C@@]1(OC(=O)[C@@H](C)O)C(=O)OCc2c1cc1n(c2=O)Cc2cc3c(CN(C)C)c(O)ccc3nc2-1 [TLC-U1, S,R-topotecan lactate] | Tmax | < 1 h |

Now turn to the next compound.
[in] Look at this compound and give its reported Tmax. CC[C@@]1(OC(=O)[C@H](C)O)C(=O)OCc2c1cc1n(c2=O)Cc2cc3c(CN(C)C)c(O)ccc3nc2-1 [TLC-U2, S,S-topotecan lactate]
[out] < 1 h

---

experiment: clinical; conditions: human, in vivo, 3 mg/m2, Tmax
quantity: Tmax (min)
Lab book: enter the figure in min, no units written.

[in] What measured Tmax goes with CC[C@@]1(OC(=O)[C@@H](C)O)C(=O)OCc2c1cc1n(c2=O)Cc2cc3c(CN(C)C)c(O)ccc3nc2-1 [TLC-U1, S,R-topotecan lactate] ?
[out] 28

[in] Dear colleague, I am looking for the recorded Tmax of the following compound: CC[C@@]1(OC(=O)[C@H](C)O)C(=O)OCc2c1cc1n(c2=O)Cc2cc3c(CN(C)C)c(O)ccc3nc2-1 [TLC-U2, S,S-topotecan lactate]
[out] 28
